# pIC50 per record follows
# targetUnderTest: human cathepsin L (Homo sapiens)
# Sequence (P07711 114-333): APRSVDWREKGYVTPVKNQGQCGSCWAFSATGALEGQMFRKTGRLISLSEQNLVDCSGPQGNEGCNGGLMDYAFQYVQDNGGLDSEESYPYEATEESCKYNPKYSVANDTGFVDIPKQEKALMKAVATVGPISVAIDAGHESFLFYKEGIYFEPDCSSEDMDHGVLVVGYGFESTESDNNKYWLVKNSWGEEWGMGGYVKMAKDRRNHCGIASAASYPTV
pIC50: −log10 of the molar value.

Worked examples follow.
1. COc1cc(-c2ccc3cc(C(=O)NC4(C(=O)NC5(C#N)CC5)CCC(F)(F)CC4)oc3c2)ccc1OCC(C)(C)O < 5.00
2. COc1cc(-c2ccc3cc(C(=O)NC4(C(=O)NC5(C#N)CC5)CCC(F)(F)CC4)oc3c2)ccc1OC(F)F < 5.00
3. N#CC1(NC(=O)C2(NC(=O)c3cc4ccc(-c5csc(N6CCS(=O)(=O)CC6)n5)cc4o3)CCCCC2)CC1 < 5.00

// next item, pIC50 requested
Incoming: Any idea what pIC50 was measured for N#CC1(NC(=O)C2(NC(=O)c3cc4ccc(-c5ccc(C6(O)COC6)cc5)cc4o3)CCCCCC2)CC1 ?
Outgoing: 5.15

====

# runDescription: Pharmacokinetic test in SD rats (iv and oral gavage), plasma by LC/MS/MS
# Format: in vivo
# testParameters: rat, male SD rats, iv 1 mg/kg
# Description: Healthy adult male SD rats were divided into groups with administration of compound by intravenous injection and oral gavage. 2. Preparation of the Test Compound Solution: A certain amount of the test compound was weighed, and then mixed with 5% DMSO, 10% Kolliphor HS15 and 85% Saline to prepare a clarified solution. 3. Administration and Sample Collection: […] The content of the compound in plasma of rat after administration was determined by LC/MS/MS method.
assayMetric: Cmax (ng/mL)

(A) N#CC1(NC(=O)C2(NC(=O)c3cc4ccc(-c5ccc(-n6cncn6)cc5)cc4o3)CCC(F)(F)CC2)CC1
(B) Cc1cc(-c2ccc3cc(C(=O)NC4(C(=O)NC5(C#N)CC5)CCC(F)(F)CC4)oc3c2)ccc1-n1cncn1
Incoming: // which entry reports the smaller Cmax, A or B ? # answer = label of selected item
Outgoing: B
(B: 382 ng/mL, A: 1110 ng/mL)

====

# runDescription: Pharmacokinetic test in SD rats (iv and oral gavage), plasma by LC/MS/MS
# Format: in vivo
# testParameters: rat, male SD rats, iv 1 mg/kg, read-out: AUCINF h * ng/ml
assayMetric: AUC(0-inf) (ng·h/mL)

Sample answers from the record:
1) N#CC1(NC(=O)C2(NC(=O)c3cc4ccc(-c5ccc(-n6ccnn6)cc5)cc4o3)CCC(F)(F)CC2)CC1 3320
2) N#CC1(NC(=O)C2(NC(=O)c3cc4ccc(-c5ccc(-n6cncn6)c(OC(F)F)c5)cc4o3)CCC(F)(F)CC2)CC1 5740
3) CCOc1cc(-c2ccc3cc(C(=O)NC4(C(=O)NC5(C#N)CC5)CCC(F)(F)CC4)oc3c2)ccc1-n1cncn1 9700

(a) Cc1cc(-c2ccc3cc(C(=O)NC4(C(=O)NC5(C#N)CC5)CCC(F)(F)CC4)oc3c2)ccc1-n1cncn1
(b) N#CC1(NC(=O)C2(NC(=O)c3cc4ccc(-c5ccc(-n6cncn6)cc5)cc4o3)CCC(F)(F)CC2)CC1
Incoming: // which entry has the larger AUC(0-inf) value, a or b ? Reply with the label of the item you choose.
Outgoing: b
(b: 9230 ng·h/mL, a: 4190 ng·h/mL)

====

# runDescription: Pharmacokinetic test in SD rats (iv and oral gavage), plasma by LC/MS/MS
# Assay type: in vivo
# testParameters: rat, male SD rats, po 5 mg/kg
assayMetric: Cmax (ng/mL)

1) CCOc1cc(-c2ccc3cc(C(=O)NC4(C(=O)NC5(C#N)CC5)CCC(F)(F)CC4)oc3c2)ccc1-n1cncn1 2260
2) N#CC1(NC(=O)C2(NC(=O)c3cc4ccc(-c5ccc(-n6cncn6)cc5)cc4o3)CCC(F)(F)CC2)CC1 1890

(1) Cc1cc(-c2ccc3cc(C(=O)NC4(C(=O)NC5(C#N)CC5)CCC(F)(F)CC4)oc3c2)ccc1-n1cncn1
(2) N#CC1(NC(=O)C2(NC(=O)c3cc4ccc(-c5ccc(-n6ccnn6)cc5)cc4o3)CCC(F)(F)CC2)CC1
(3) N#CC1(NC(=O)C2(NC(=O)c3cc4ccc(-c5ccc(-n6cncn6)c(OC(F)F)c5)cc4o3)CCC(F)(F)CC2)CC1
Incoming: Provide the items ranked by increasing Cmax. Arrange the labels as the request states and list them.
Outgoing: 1, 2, 3
